Data provenance: patent US12178818B2

- test method notes: clinical
- measurement conditions: human, in vivo, po
property: half-life

| compound | property | result |
| --- | --- | --- |
| CC(C)(C=C(C#N)C(=O)N1CCC[C@@H](n2nc(-c3ccc(Oc4ccccc4)cc3F)c3c(N)ncnc32)C1)N1CCN(C2COC2)CC1 | half-life | 180 to 240 min |
